# assay: Healthy Japanese subjects, Part 2 (100, 200, 300 mg BID up-titration): PK of TAK-935 and M-I
# Type: in vivo, human
# measurement conditions: human, plasma, oral, 200 mg, Day 14, TAK-935 200 mg BID, plasma, mean; read-out: AUCτ (AUC during a dosing interval)
metric name: AUC

Summary for this compound, O=C(c1cccnc1-c1ccncc1)N1CCC(O)(Cc2ccccc2)CC1 [soticlestat] : AUC is 861 ng·h/mL

====

# assay: Healthy Japanese subjects, Part 2 (100, 200, 300 mg BID up-titration): PK of TAK-935 and M-I
# Assay type: in vivo, human
# measurement conditions: human, plasma, oral, 300 mg, Day 21, TAK-935 300 mg BID, plasma, mean; read-out: t1/2z (terminal disposition phase half-life) (converted)
metric name: half-life (h)
Give a bare numeral; the unit h is implied.

Summary for this compound, O=C(c1cccnc1-c1ccncc1)N1CCC(O)(Cc2ccccc2)CC1 [soticlestat] : half-life is 2.93

Measured values drawn from patent US20250213547A1 for this set.
